Data provenance: patent US7425556B2

- study_target: GABAA2 (human α2β3γ2 GABAA receptor) (Homo sapiens, UniProt P18507+P47869)
- Construct: expressed in transfected cells; host or cells: Xenopus laevis oocytes injected with capped cRNA
- Sequence (P47869 29-451): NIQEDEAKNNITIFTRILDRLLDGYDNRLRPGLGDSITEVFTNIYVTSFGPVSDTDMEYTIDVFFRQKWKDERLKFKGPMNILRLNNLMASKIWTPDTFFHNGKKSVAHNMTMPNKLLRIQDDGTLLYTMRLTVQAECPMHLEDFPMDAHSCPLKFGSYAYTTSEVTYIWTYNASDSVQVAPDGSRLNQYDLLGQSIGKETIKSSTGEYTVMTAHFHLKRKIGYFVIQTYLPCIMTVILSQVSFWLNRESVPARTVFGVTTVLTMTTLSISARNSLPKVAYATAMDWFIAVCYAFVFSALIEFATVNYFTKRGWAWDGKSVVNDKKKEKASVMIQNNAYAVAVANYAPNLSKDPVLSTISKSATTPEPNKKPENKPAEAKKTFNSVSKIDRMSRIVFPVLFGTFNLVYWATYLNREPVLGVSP
- Sequence (P28472 26-473 partner): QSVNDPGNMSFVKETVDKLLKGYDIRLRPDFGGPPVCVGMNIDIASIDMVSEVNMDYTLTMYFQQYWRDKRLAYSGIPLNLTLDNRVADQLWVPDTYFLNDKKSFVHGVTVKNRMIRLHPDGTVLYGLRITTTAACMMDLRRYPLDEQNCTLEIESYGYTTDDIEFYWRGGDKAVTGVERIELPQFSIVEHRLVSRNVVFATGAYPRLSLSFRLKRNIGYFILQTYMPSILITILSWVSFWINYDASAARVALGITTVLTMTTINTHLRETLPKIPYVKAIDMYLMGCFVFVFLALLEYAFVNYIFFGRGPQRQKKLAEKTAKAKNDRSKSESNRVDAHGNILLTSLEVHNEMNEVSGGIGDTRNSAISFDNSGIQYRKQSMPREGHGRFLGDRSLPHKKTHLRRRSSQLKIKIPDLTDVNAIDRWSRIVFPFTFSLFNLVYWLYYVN
- Sequence (P18507 40-475): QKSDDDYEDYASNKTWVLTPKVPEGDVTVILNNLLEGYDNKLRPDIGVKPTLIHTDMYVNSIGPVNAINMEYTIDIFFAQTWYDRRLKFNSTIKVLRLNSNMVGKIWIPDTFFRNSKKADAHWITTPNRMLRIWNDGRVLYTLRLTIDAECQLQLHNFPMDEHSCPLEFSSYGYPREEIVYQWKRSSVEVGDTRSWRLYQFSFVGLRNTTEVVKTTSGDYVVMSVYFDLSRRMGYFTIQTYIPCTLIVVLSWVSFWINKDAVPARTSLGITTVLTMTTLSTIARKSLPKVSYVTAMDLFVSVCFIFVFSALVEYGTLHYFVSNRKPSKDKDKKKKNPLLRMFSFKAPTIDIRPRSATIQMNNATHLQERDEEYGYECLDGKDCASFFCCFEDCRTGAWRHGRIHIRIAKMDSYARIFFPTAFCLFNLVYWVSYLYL
- assay_text: Two-electrode voltage-clamp in Xenopus oocytes, potentiation of GABA EC10 current, GABAA2
- Format: cell-based
- particulars: percentage potentiation of GABA EC10 current divided by that of diazepam
Provide the reported Relative Potentiation for GABAA2 of each item.
Reply with the value as a number alone.

Provide measured Relative Potentiation for GABAA2 on GABAA2 (human α2β3γ2 GABAA receptor) (Homo sapiens, UniProt P18507+P47869) for CCCNC(=O)c1nnc2c(-c3cc(C(F)(F)F)cc(C(F)(F)F)c3)cccc2c1N please. 0.13

Provide measured Relative Potentiation for GABAA2 on GABAA2 (human α2β3γ2 GABAA receptor) (Homo sapiens, UniProt P18507+P47869) for CCCNC(=O)c1nnc2c(-c3ccccn3)cccc2c1N please. −0.032

Provide measured Relative Potentiation for GABAA2 on GABAA2 (human α2β3γ2 GABAA receptor) (Homo sapiens, UniProt P18507+P47869) for CCCNC(=O)c1nnc2c(-c3cccc(Cl)c3)cccc2c1N please. 0.53

Provide measured Relative Potentiation for GABAA2 on GABAA2 (human α2β3γ2 GABAA receptor) (Homo sapiens, UniProt P18507+P47869) for CCCNC(=O)c1nnc2c(-c3ccc(OC)c(F)c3)cccc2c1N please. 0.19

Provide measured Relative Potentiation for GABAA2 on GABAA2 (human α2β3γ2 GABAA receptor) (Homo sapiens, UniProt P18507+P47869) for CCCNC(=O)c1nnc2c(-c3ccccc3)c(F)ccc2c1N please. 0.02

Provide measured Relative Potentiation for GABAA2 on GABAA2 (human α2β3γ2 GABAA receptor) (Homo sapiens, UniProt P18507+P47869) for CCCNC(=O)c1nnc2c(-c3cccc(OC)c3)cccc2c1N please. 0.22

Provide measured Relative Potentiation for GABAA2 on GABAA2 (human α2β3γ2 GABAA receptor) (Homo sapiens, UniProt P18507+P47869) for CCCNC(=O)c1nnc2c(-c3ccc(F)c(F)c3)cccc2c1N please. 0.12

Provide measured Relative Potentiation for GABAA2 on GABAA2 (human α2β3γ2 GABAA receptor) (Homo sapiens, UniProt P18507+P47869) for CCCNC(=O)c1nnc2c(-c3ccccc3)c(Cl)ccc2c1N please. 0.16

Provide measured Relative Potentiation for GABAA2 on GABAA2 (human α2β3γ2 GABAA receptor) (Homo sapiens, UniProt P18507+P47869) for CCCNC(=O)c1nnc2c(-c3ccncc3)cccc2c1N please. 0.1

Provide measured Relative Potentiation for GABAA2 on GABAA2 (human α2β3γ2 GABAA receptor) (Homo sapiens, UniProt P18507+P47869) for CCCNC(=O)c1nnc2c(-c3cccc(Cl)c3Cl)cccc2c1N please. 0.053

Provide measured Relative Potentiation for GABAA2 on GABAA2 (human α2β3γ2 GABAA receptor) (Homo sapiens, UniProt P18507+P47869) for CCCNC(=O)c1nnc2c(-c3ccc(Cl)cc3)c(F)ccc2c1N please. 0.19

Provide measured Relative Potentiation for GABAA2 on GABAA2 (human α2β3γ2 GABAA receptor) (Homo sapiens, UniProt P18507+P47869) for CCCNC(=O)c1nnc2c(-c3cnccc3C)cccc2c1N please. 0.11

Provide measured Relative Potentiation for GABAA2 on GABAA2 (human α2β3γ2 GABAA receptor) (Homo sapiens, UniProt P18507+P47869) for CCCNC(=O)c1nnc2c(-c3ccc(OC)cc3F)cccc2c1N please. 0.12

Provide measured Relative Potentiation for GABAA2 on GABAA2 (human α2β3γ2 GABAA receptor) (Homo sapiens, UniProt P18507+P47869) for CCCNC(=O)c1nnc2c(-c3ccccc3C(F)(F)F)cccc2c1N please. 0.063

Provide measured Relative Potentiation for GABAA2 on GABAA2 (human α2β3γ2 GABAA receptor) (Homo sapiens, UniProt P18507+P47869) for C=CCNC(=O)c1nnc2c(-c3cc(OC)ccc3OC)cccc2c1N please. 0.33

Provide measured Relative Potentiation for GABAA2 on GABAA2 (human α2β3γ2 GABAA receptor) (Homo sapiens, UniProt P18507+P47869) for CCCNC(=O)c1nnc2c(-c3ccc(F)cc3OC)c(F)ccc2c1N please. 0.18

Provide measured Relative Potentiation for GABAA2 on GABAA2 (human α2β3γ2 GABAA receptor) (Homo sapiens, UniProt P18507+P47869) for CCCNC(=O)c1nnc2c(-c3cccc(OC)c3F)c(F)ccc2c1N please. 0.23

Provide measured Relative Potentiation for GABAA2 on GABAA2 (human α2β3γ2 GABAA receptor) (Homo sapiens, UniProt P18507+P47869) for Nc1c(C(=O)NCC2CC2)nnc2c(-c3ccccc3)cccc12 please. 0.24

Provide measured Relative Potentiation for GABAA2 on GABAA2 (human α2β3γ2 GABAA receptor) (Homo sapiens, UniProt P18507+P47869) for CCCNC(=O)c1nnc2c(-c3cc(F)ccc3F)c(F)ccc2c1N please. 0.098

Provide measured Relative Potentiation for GABAA2 on GABAA2 (human α2β3γ2 GABAA receptor) (Homo sapiens, UniProt P18507+P47869) for CCCNC(=O)c1nnc2c(-c3cnccc3OC)c(Cl)ccc2c1N please. 0.14

Provide measured Relative Potentiation for GABAA2 on GABAA2 (human α2β3γ2 GABAA receptor) (Homo sapiens, UniProt P18507+P47869) for CCNC(=O)c1nnc2c(-c3cnc(OC)nc3OC)cccc2c1N please. 0.35

Provide measured Relative Potentiation for GABAA2 on GABAA2 (human α2β3γ2 GABAA receptor) (Homo sapiens, UniProt P18507+P47869) for CCCNC(=O)c1nnc2c(-c3cc(C)ccc3OC)c(F)ccc2c1N please. 0.37

Provide measured Relative Potentiation for GABAA2 on GABAA2 (human α2β3γ2 GABAA receptor) (Homo sapiens, UniProt P18507+P47869) for CCCNC(=O)c1nnc2c(-c3cc(Cl)cc(Cl)c3)cccc2c1N please. 0.48

---

Provide the reported Ki of each item.
- study_target: GABAA2 receptors (α2, β3, γ2 receptor subunits) (Homo sapiens, UniProt P18507+P47869)
- Sequence (P47869 29-451): as the sequence (P47869 29-451) above
- Sequence (P28472 26-473 partner): as the sequence (P28472 26-473 partner) above
- Sequence (P18507 40-475): as the sequence (P18507 40-475) above
- assay_text: biochemical
- particulars: [3H]-Flunitrazepam ~2 nM, α2β3γ2 Sf9 membranes, 1 hr at 4° C.; read-out: GABAA2 Binding Ki
Write down the numeric answer in nM and omit the unit.

Provide measured Ki on GABAA2 receptors (α2, β3, γ2 receptor subunits) (Homo sapiens, UniProt P18507+P47869) for CCCNC(=O)c1nnc2c(-c3cc(Cl)ccc3OC)c(F)ccc2c1N please. 0.327

Provide measured Ki on GABAA2 receptors (α2, β3, γ2 receptor subunits) (Homo sapiens, UniProt P18507+P47869) for CCCNC(=O)c1nnc2c(-c3cnccc3C)cccc2c1N please. 1.68

Provide measured Ki on GABAA2 receptors (α2, β3, γ2 receptor subunits) (Homo sapiens, UniProt P18507+P47869) for CCCNC(=O)c1nnc2c(-c3ccc(F)cc3OCC)c(F)ccc2c1N please. 1.03

Provide measured Ki on GABAA2 receptors (α2, β3, γ2 receptor subunits) (Homo sapiens, UniProt P18507+P47869) for COc1ccc(C)cc1-c1cccc2c(N)c(C(=O)NC3CC3)nnc12 please. 15.2

Provide measured Ki on GABAA2 receptors (α2, β3, γ2 receptor subunits) (Homo sapiens, UniProt P18507+P47869) for CCNC(=O)c1nnc2c(-c3ccc(OC)cc3OC)cccc2c1N please. 4.54

Provide measured Ki on GABAA2 receptors (α2, β3, γ2 receptor subunits) (Homo sapiens, UniProt P18507+P47869) for CCCNC(=O)c1nnc2c(-c3cc(Cl)ccc3OC)cccc2c1N please. 1.11

Provide measured Ki on GABAA2 receptors (α2, β3, γ2 receptor subunits) (Homo sapiens, UniProt P18507+P47869) for Nc1c(C(=O)NCC2CC2)nnc2c(-c3ccccc3)cccc12 please. 18.6

Provide measured Ki on GABAA2 receptors (α2, β3, γ2 receptor subunits) (Homo sapiens, UniProt P18507+P47869) for CCCNC(=O)c1nnc2c(-c3ccc(C)cc3)cccc2c1N please. 29

Provide measured Ki on GABAA2 receptors (α2, β3, γ2 receptor subunits) (Homo sapiens, UniProt P18507+P47869) for COc1ccc(F)cc1-c1cccc2c(N)c(C(=O)NC3CC3)nnc12 please. 8.22

Provide measured Ki on GABAA2 receptors (α2, β3, γ2 receptor subunits) (Homo sapiens, UniProt P18507+P47869) for CCCNC(=O)c1nnc2c(-c3cccc(S(C)(=O)=O)c3)cccc2c1N please. 10.4

Provide measured Ki on GABAA2 receptors (α2, β3, γ2 receptor subunits) (Homo sapiens, UniProt P18507+P47869) for CCCNC(=O)c1nnc2c(-c3ccc(F)c(F)c3)cccc2c1N please. 20

Provide measured Ki on GABAA2 receptors (α2, β3, γ2 receptor subunits) (Homo sapiens, UniProt P18507+P47869) for CCCNC(=O)c1nnc2c(-c3ccc4ncccc4c3)cccc2c1N please. 6.4

Provide measured Ki on GABAA2 receptors (α2, β3, γ2 receptor subunits) (Homo sapiens, UniProt P18507+P47869) for CCCNC(=O)c1nnc2c(-c3cncc(C(=O)N4CCC4)c3)cccc2c1N please. 2.34

Provide measured Ki on GABAA2 receptors (α2, β3, γ2 receptor subunits) (Homo sapiens, UniProt P18507+P47869) for CCCCNC(=O)c1nnc2c(-c3cc(C)ccc3OC)cccc2c1N please. 13.3

Provide measured Ki on GABAA2 receptors (α2, β3, γ2 receptor subunits) (Homo sapiens, UniProt P18507+P47869) for CCCNC(=O)c1nnc2c(-c3ccc(OC)c(OC)c3OC)cccc2c1N please. 6.75

Provide measured Ki on GABAA2 receptors (α2, β3, γ2 receptor subunits) (Homo sapiens, UniProt P18507+P47869) for CCCNC(=O)c1nnc2c(-c3cc(OC)ccc3OC)c(Cl)ccc2c1N please. 13.9

Provide measured Ki on GABAA2 receptors (α2, β3, γ2 receptor subunits) (Homo sapiens, UniProt P18507+P47869) for CCCNC(=O)c1nnc2c(-c3cnccc3OC)c(Cl)ccc2c1N please. 0.505

Provide measured Ki on GABAA2 receptors (α2, β3, γ2 receptor subunits) (Homo sapiens, UniProt P18507+P47869) for CCCNC(=O)c1nnc2c(-c3cc(C(F)(F)F)ccc3Cl)cccc2c1N please. 1.36

Provide measured Ki on GABAA2 receptors (α2, β3, γ2 receptor subunits) (Homo sapiens, UniProt P18507+P47869) for Cc1ccc(-c2cccc3c(N)c(C(=O)NC4CC4)nnc23)cn1 please. 4.02

Provide measured Ki on GABAA2 receptors (α2, β3, γ2 receptor subunits) (Homo sapiens, UniProt P18507+P47869) for CCCNC(=O)c1nnc2c(-c3ccc4[nH]ccc4c3)cccc2c1N please. 35

Provide measured Ki on GABAA2 receptors (α2, β3, γ2 receptor subunits) (Homo sapiens, UniProt P18507+P47869) for CCCNC(=O)c1nnc2c(-c3ccc(OC)cc3OC)cccc2c1N please. 2.5

Provide measured Ki on GABAA2 receptors (α2, β3, γ2 receptor subunits) (Homo sapiens, UniProt P18507+P47869) for CCCNC(=O)c1nnc2c(-c3ccccc3)c(F)ccc2c1N please. 1

Provide measured Ki on GABAA2 receptors (α2, β3, γ2 receptor subunits) (Homo sapiens, UniProt P18507+P47869) for CCCNC(=O)c1nnc2c(-c3ccc(OC)cc3C(F)(F)F)c(F)ccc2c1N please. 0.624
